# assay-summary: Pharmacokinetic evaluation in rats
# Format: in vivo
# applied-conditions: rat, plasma; SD male rats, Dosage IV/PO 1/3 mg/kg
reported-endpoint: bioavailability (%)
// units = %; emit number, no label

Please give measured bioavailability of the following entry: CC(=O)N1CCOC[C@H]1CNc1nc2nc(-c3c(C)cc(C(F)(F)F)cc3O)ccc2o1 94

---

This listing pairs compounds with measured IC50.
# test-system: hERG ion channel (Homo sapiens, UniProt Q12809)
# Sequence (Q12809 whole entry): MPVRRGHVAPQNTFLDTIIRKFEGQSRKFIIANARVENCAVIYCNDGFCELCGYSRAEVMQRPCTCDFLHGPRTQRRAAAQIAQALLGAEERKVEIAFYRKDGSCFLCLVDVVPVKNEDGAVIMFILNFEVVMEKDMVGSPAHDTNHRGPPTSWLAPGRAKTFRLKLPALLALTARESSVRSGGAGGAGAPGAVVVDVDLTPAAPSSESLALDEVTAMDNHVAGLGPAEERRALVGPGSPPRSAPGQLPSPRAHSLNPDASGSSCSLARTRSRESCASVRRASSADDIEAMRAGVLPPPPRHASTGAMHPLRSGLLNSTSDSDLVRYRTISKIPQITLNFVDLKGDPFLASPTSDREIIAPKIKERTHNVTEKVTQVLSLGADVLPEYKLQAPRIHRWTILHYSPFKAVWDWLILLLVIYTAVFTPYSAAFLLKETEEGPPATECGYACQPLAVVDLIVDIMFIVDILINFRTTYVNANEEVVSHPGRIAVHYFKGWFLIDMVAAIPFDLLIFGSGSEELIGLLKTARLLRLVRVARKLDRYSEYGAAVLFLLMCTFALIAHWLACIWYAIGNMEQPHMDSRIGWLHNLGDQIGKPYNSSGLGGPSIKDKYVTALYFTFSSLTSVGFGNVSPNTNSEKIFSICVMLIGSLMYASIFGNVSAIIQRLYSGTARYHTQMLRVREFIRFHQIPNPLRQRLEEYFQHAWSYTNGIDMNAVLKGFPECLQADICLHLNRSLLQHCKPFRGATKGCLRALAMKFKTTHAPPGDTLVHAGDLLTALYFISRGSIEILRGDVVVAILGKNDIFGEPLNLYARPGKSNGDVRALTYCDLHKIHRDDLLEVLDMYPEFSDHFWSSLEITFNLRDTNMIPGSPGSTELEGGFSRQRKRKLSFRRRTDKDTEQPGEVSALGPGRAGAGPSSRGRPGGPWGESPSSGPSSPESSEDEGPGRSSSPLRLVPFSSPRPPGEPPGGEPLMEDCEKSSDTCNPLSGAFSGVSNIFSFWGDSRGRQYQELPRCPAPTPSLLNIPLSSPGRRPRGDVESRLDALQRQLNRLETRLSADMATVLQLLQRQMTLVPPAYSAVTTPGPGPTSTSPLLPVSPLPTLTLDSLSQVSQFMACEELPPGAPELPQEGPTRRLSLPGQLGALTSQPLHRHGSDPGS
# assay-summary: hERG ion channel inhibition, manual patch clamp in HEK293 cells
# applied-conditions: HEK293 cells stably expressing hERG, read-out: hERG(IC50, manupatch)

Please give measured IC50 of the following entry: CC(=O)N1CCOC[C@H]1CNc1nc2nc(-c3c(C)cc(C(F)(F)F)cc3O)ccc2o1 > 30 µM

Now consider a different compound.
Please give measured IC50 of the following entry: Cc1cc(C(F)(F)F)cc(O)c1-c1ccc2oc(N3CCS(=O)(=O)CC3)nc2n1 > 30 µM

---

# test-system: His6-Flag-TEV-NLRP3 (134-1036) (Homo sapiens, UniProt Q96P20)
# Construct: fused on or other part: N-terminal His6 tag, Flag tag and TEV cleavage site
# Sequence (Q96P20 134-1036 limits assumed): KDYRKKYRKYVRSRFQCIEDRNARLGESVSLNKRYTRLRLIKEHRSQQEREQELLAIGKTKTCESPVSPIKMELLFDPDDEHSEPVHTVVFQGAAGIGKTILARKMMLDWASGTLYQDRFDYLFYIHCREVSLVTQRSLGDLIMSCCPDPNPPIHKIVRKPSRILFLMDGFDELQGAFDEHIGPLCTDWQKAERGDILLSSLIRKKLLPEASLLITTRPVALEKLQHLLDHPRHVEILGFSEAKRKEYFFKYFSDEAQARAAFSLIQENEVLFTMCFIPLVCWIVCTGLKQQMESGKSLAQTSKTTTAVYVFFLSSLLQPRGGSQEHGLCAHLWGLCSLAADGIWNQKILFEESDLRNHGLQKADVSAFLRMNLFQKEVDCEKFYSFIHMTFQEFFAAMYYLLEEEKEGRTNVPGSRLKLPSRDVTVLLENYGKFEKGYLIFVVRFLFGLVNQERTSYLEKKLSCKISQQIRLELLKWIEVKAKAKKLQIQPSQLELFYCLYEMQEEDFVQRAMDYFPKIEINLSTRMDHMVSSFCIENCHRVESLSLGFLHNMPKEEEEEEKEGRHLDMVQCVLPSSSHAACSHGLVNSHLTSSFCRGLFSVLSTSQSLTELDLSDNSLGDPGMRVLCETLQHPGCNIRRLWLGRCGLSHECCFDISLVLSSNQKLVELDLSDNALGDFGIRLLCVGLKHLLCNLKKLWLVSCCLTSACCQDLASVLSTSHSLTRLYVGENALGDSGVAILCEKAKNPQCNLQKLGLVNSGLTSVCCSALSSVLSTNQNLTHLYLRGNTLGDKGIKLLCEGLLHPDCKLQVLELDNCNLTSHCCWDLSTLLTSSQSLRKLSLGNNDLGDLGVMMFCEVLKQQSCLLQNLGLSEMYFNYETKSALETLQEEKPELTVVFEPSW
# assay-summary: NLRP3 fluorescence polarization (FP) binding assay, competition with probe NP3-301
# applied-conditions: competition with NP3-301 for binding to NLRP3 (134-1036), 30 nM protein
# Text: This experiment uses fluorescence polarization technology to detect and evaluate the binding assay. The fluorescent probe used in this assay is the compound NP3-301 in the Journal of Molecular Biology (2021) 433, 167309, which was synthesized with reference to this literature. His6-Flag-TEV-NLRP3 (134-1036) protein (SEQ NO. 1) was purchased from Kaihuiruizhi Biotech (Shanghai) Co., Ltd. (ChemPartner), and was customed for expression. […]
pIC50: −log10 of the molar value.
This listing pairs compounds with measured pIC50.

Please give measured pIC50 of the following entry: Cc1cc(C(F)(F)F)cc(O)c1-c1ccc2ccc(N)nc2n1 6.30 to 7.00

Please give measured pIC50 of the following entry: CC(=O)N1CC[C@@H](CNc2nc3nc(-c4c(C)cc(C(F)(F)F)cc4O)ccc3o2)C1 6.30 to 7.00

Please give measured pIC50 of the following entry: CCN1CCCC(c2nc3nc(-c4c(C)cc(C(F)(F)F)cc4O)ccc3[nH]2)C1 (stereo not drawn) ≥ 7.00

Please give measured pIC50 of the following entry: Cc1cc(C(F)(F)F)cc(O)c1-c1ccc2[nH]c(C3CCCNC3)nc2n1 (stereo not drawn) ≥ 7.00

Further cases:
Please give measured pIC50 of the following entry: CC(=O)N1CCOC[C@H]1CNc1nc2nc(-c3c(C)cc(Cl)cc3O)cc(C)c2o1 ≥ 7.00

Please give measured pIC50 of the following entry: CC(=O)N1CC2(CCN(c3nc4nc(-c5c(C)cc(C(F)(F)F)cc5O)ccc4o3)CC2)C1 ≥ 7.00

---

# assay-summary: Pharmacokinetic evaluation in mice
# Type: in vivo
# applied-conditions: mouse, plasma; ICR male mice, Dosage IV/PO 1/3 mg/kg
reported-endpoint: bioavailability (%)
// units = %; emit number, no label

Please give measured bioavailability of the following entry: CC(=O)N1CCOC[C@H]1CNc1nc2nc(-c3c(C)cc(C(F)(F)F)cc3O)ccc2o1 [Compound 111] 137

---

# test-system: CYP2C9 (Homo sapiens, UniProt P11712)
# Construct: 0.05 mg/mL liver microsome (BioIVT, IHG) phosphate buffer solution; tissue BioIVT IHG; host or cells: human liver microsomes
# Sequence (P11712 whole entry): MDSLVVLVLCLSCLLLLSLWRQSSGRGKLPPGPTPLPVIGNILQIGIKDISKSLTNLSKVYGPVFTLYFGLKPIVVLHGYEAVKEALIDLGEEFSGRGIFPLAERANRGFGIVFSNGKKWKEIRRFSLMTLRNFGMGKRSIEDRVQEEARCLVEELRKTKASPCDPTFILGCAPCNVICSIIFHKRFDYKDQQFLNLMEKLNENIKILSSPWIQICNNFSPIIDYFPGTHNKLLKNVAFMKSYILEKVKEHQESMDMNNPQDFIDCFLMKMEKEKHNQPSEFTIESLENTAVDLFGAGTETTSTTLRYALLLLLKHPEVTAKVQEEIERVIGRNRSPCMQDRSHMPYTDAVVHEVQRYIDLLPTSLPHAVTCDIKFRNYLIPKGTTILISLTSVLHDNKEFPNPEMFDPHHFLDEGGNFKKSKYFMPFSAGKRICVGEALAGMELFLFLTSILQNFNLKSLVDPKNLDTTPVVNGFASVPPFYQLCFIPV
# assay-summary: CYP450 enzyme inhibition in human liver microsomes, CYP2C9
# Assay type: in vitro ADME
# applied-conditions: substrate Diclofenac Sodium, read-out: Inhibitory activity IC50 (μM) CYP2C9
reported-endpoint: IC50

Please give measured IC50 of the following entry: CC(=O)N1CCOC[C@H]1CNc1nc2nc(-c3c(C)cc(C(F)(F)F)cc3O)ccc2o1 > 30 µM

---

# test-system: His6-Flag-TEV-NLRP3 (134-1036) (Homo sapiens)
# Construct: fused on or other part: N-terminal His6 tag, Flag tag and TEV cleavage site
# assay-summary: NLRP3 fluorescence polarization (FP) binding assay, competition with probe NP3-301
# applied-conditions: competition with NP3-301 for binding to NLRP3 (134-1036), 30 nM protein
pIC50: −log10 of the molar value.
reported-endpoint: pIC50

Example molecules with recorded pIC50:
Please give measured pIC50 of the following entry: CC(=O)N1CCOC[C@H]1CNc1nc2nc(-c3c(C)cc(C)cc3O)ccc2o1 6.30 to 7.00

Please give measured pIC50 of the following entry: CC(=O)N1CCOC[C@H]1CNc1nc2nc(-c3c(C)cc(C(F)(F)F)cc3O)cc(C)c2o1 ≥ 7.00

Please give measured pIC50 of the following entry: CC(=O)N1CCC2(CC1)CCN(c1nc3nc(-c4c(C)cc(C(F)(F)F)cc4O)ccc3o1)CC2 6.30 to 7.00

Now consider a different molecule.
Please give measured pIC50 of the following entry: CC(=O)N1CCC[C@@H](Nc2nc3nc(-c4c(C)cc(C(F)(F)F)cc4O)ccc3o2)C1 ≥ 7.00

---

# test-system: His6-Flag-TEV-NLRP3 (134-1036) (Homo sapiens, UniProt Q96P20)
# Construct: fused on or other part: N-terminal His6 tag, Flag tag and TEV cleavage site
# assay-summary: NLRP3 fluorescence polarization (FP) binding assay, competition with probe NP3-301
# applied-conditions: competition with NP3-301 for binding to NLRP3 (134-1036), 30 nM protein
pIC50: −log10 of the molar value.
reported-endpoint: pIC50

Example compounds with recorded pIC50:
Please give measured pIC50 of the following entry: Cc1cc(C(F)(F)F)cc(O)c1-c1ccc2oc(NC[C@@H]3COCCN3C(=O)C(F)(F)F)nc2n1 ≥ 7.00

Please give measured pIC50 of the following entry: Cc1cc(C(F)(F)F)cc(O)c1-c1ccc2oc(N3CCN(C)C3=O)nc2n1 ≥ 7.00

Now consider a different compound.
Please give measured pIC50 of the following entry: CCN1CCC[C@@H](N2CC(=O)Nc3cc(-c4c(C)cc(C(F)(F)F)cc4O)nnc32)C1 ≥ 7.00

---

This listing pairs compounds with measured pIC50.
# test-system: His6-Flag-TEV-NLRP3 (134-1036) (Homo sapiens, UniProt Q96P20)
# Construct: fused on or other part: N-terminal His6 tag, Flag tag and TEV cleavage site
# assay-summary: NLRP3 fluorescence polarization (FP) binding assay, competition with probe NP3-301
# applied-conditions: competition with NP3-301 for binding to NLRP3 (134-1036), 30 nM protein
pIC50: −log10 of the molar value.

Example compounds with recorded pIC50:
Please give measured pIC50 of the following entry: Cc1cc(C(F)(F)F)cc(O)c1-c1ccc2oc(N[C@@H]3COCC[C@H]3O)nc2n1 6.30 to 7.00

Please give measured pIC50 of the following entry: CC(=O)NC[C@@H]1COCCN1c1nc2c(C)cc(-c3c(C)cc(C(F)(F)F)cc3O)nn2n1 ≥ 7.00

Please give measured pIC50 of the following entry: Cc1cc(C(F)(F)F)cc(O)c1-c1cc(C)n2nc(N[C@@H]3CCCN(C)C3)nc2n1 ≥ 7.00

Please give measured pIC50 of the following entry: Cc1cc(C(F)(F)F)c(Cl)c(O)c1-c1ccn2nc(N3CCOCC3)nc2n1 < 6.00

Please give measured pIC50 of the following entry: CC(=O)N1CCC2(CCN(c3nc4nc(-c5c(C)cc(C(F)(F)F)cc5O)ccc4o3)C2)C1 (stereo not shown) ≥ 7.00

Now consider a different compound.
Please give measured pIC50 of the following entry: Cc1cc(C(F)(F)F)cc(O)c1-c1ccc2oc(N)nc2n1 ≥ 7.00

---

# test-system: CYP3A4 (Homo sapiens)
# Construct: 0.05 mg/mL liver microsome (BioIVT, IHG) phosphate buffer solution; tissue BioIVT IHG; host or cells: human liver microsomes
# Sequence (P08684 whole entry): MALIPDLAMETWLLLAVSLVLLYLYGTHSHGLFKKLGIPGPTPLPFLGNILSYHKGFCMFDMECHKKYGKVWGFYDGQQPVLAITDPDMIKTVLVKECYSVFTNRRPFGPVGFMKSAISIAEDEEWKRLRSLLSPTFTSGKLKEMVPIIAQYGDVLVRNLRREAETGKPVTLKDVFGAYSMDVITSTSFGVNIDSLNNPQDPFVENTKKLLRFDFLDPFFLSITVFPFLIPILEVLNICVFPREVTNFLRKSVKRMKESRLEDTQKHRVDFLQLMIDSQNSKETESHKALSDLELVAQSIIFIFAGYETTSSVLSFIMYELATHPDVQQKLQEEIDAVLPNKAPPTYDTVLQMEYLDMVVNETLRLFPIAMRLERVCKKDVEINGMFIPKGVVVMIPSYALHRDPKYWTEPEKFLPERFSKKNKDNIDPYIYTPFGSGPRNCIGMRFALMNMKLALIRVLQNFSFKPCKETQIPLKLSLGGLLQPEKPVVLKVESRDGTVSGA
# assay-summary: CYP450 enzyme inhibition in human liver microsomes, CYP3A4
# Assay type: in vitro ADME
# applied-conditions: substrate Midazolam, read-out: Inhibitory activity IC50 (μM) CYP3A4-M
reported-endpoint: IC50 (µM)
// units = µM; emit number, no label

Please give measured IC50 of the following entry: CC(=O)N1CCOC[C@H]1CNc1nc2nc(-c3c(C)cc(C(F)(F)F)cc3O)ccc2o1 [Compound 111] 28.7

---

This listing pairs molecules with measured IC50.
# test-system: His6-Flag-TEV-NLRP3 (134-1036) (Homo sapiens)
# Construct: fused on or other part: N-terminal His6 tag, Flag tag and TEV cleavage site
# assay-summary: NLRP3 fluorescence polarization (FP) binding assay, competition with probe NP3-301
# applied-conditions: competition with NP3-301 for binding to NLRP3 (134-1036), 30 nM protein

Please give measured IC50 of the following entry: Cc1cc(C(F)(F)F)cc(O)c1-c1ccc2oc(N3CCS(=O)(=O)c4ccccc43)nc2n1 ≤ 100 nM

Please give measured IC50 of the following entry: Cc1cc(C(F)(F)F)cc(O)c1-c1ccc2oc(N3CCC4(CCCCO4)CC3)nc2n1 ≤ 100 nM

Please give measured IC50 of the following entry: CC(=O)NC[C@@H]1COCCN1c1nc2nc(-c3c(C)cc(C(F)(F)F)cc3O)cc(C)n2n1 ≤ 100 nM

Please give measured IC50 of the following entry: Cc1cc(C(F)(F)F)cc(O)c1-c1ccc2[nH]c(N)nc2n1 100 to 500 nM

Please give measured IC50 of the following entry: Cc1cc(C(F)(F)F)cc(O)c1-c1cc2ccn(Cc3cc(C#N)ccn3)c2nn1 > 1000 nM

Please give measured IC50 of the following entry: CC(=O)N1CCOC[C@H]1CNc1nc2ccc(-c3c(C)cc(C(F)(F)F)cc3O)nn2n1 100 to 500 nM

Please give measured IC50 of the following entry: CC(=O)N1CCCC2(CCN(c3nc4nc(-c5c(C)cc(C(F)(F)F)cc5O)ccc4o3)CC2)C1 500 to 1000 nM

Please give measured IC50 of the following entry: Cc1cc(C(F)(F)F)cc(O)c1-c1cc(C)c2nc(N[C@@H]3CCCN(CCO)C3)nn2n1 ≤ 100 nM

Further cases:
Please give measured IC50 of the following entry: Cc1cc(C(F)(F)F)cc(O)c1-c1ccc2oc(NC3CC3)nc2n1 ≤ 100 nM

Please give measured IC50 of the following entry: Cc1cc(C(F)(F)F)cc(O)c1-c1ccc2oc(N3CC4CC(C3)N4S(C)(=O)=O)nc2n1 ≤ 100 nM

Please give measured IC50 of the following entry: Cc1cc(C(F)(F)F)cc(O)c1-c1ccc2oc(N[C@@H]3CCCN(C(=O)C4CC4)C3)nc2n1 ≤ 100 nM

Please give measured IC50 of the following entry: [2H]C([2H])([2H])C(=O)N1CCOC[C@H]1CNc1nc2nc(-c3c(C)cc(C(F)(F)F)cc3O)ccc2o1 ≤ 100 nM
